Entry source: ChEMBL document CHEMBL1129788

organism: Mus musculus; experiment: Long time survivors(out of 5) are the number of mice that survived for > 60 days relative to the total number of treated mice; assay type: functional
PROPERTY: Survivors
Give the figure by itself; no unit, no explanation.

Enquiry: Retrieve Survivors measured for NCc1ccc(/C=N/N=C(/N)S)nc1 and print it.
Return: 1

Enquiry: Consider the molecule CNc1ccc(/C=N/N=C(/N)S)nc1 and give its recorded Survivors.
Return: 0

Enquiry: Let me know recorded Survivors for C=CCNc1ccc(/C=N/N=C(/N)S)nc1 , thanks.
Return: 0

###

Assignment: determine reported IC50 for the given compounds.
molecular target: Ribonucleoside-diphosphate reductase subunit M2 (Homo sapiens, UniProt P31350); assay: Inhibitory activity against CDP reductase.
Sequence (P31350 whole entry): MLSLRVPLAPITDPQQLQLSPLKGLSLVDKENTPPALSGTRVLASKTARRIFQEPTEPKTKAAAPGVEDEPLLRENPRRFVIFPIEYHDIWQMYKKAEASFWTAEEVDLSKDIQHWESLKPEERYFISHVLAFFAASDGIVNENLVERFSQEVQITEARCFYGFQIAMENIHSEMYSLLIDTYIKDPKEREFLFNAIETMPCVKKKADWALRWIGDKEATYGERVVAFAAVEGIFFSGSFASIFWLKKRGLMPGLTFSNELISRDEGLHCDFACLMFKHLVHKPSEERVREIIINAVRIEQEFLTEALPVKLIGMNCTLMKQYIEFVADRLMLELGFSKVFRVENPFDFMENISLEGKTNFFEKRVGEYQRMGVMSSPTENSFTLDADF
Quick note: give the figure in nM, leave out the unit.

Enquiry: Please give measured IC50 of the following entry: C=CCNc1ccc(/C=N/N=C(/N)S)nc1
Return: 1400

Enquiry: Query IC50 for CCCCNc1ccc(/C=N/N=C(/N)S)nc1
Return: 2500

Enquiry: Name the recorded IC50 of the compound listed here: N/C(S)=N/N=C/c1ncc(N)cc1N
Return: 9000

Enquiry: Kindly indicate its recorded IC50. Item: N/C(S)=N/N=C/c1cc(CN2CCOCC2)c(N)cn1
Return: 11000

Enquiry: State its IC50: CCCNc1ccc(/C=N/N=C(/N)S)nc1
Return: 1400

Enquiry: Give the measured IC50 for NCc1ccc(/C=N/N=C(/N)S)nc1
Return: 2500

Enquiry: Complete the entry with IC50 for CCNc1ccc(/C=N/N=C(/N)S)nc1
Return: 1000

Enquiry: Fill in IC50 for record C=CCNc1cccnc1/C=N/N=C(/N)S
Return: 1700

Enquiry: Answer with reported IC50 of CNc1ccc(/C=N/N=C(/N)S)nc1
Return: 1300

Enquiry: Please give measured IC50 of the following entry: CNc1cccnc1/C=N/N=C(/N)S
Return: 1000
